Target: yeast proteasome (Saccharomyces cerevisiae, UniProt P30656)
Construct: yeast proteasome (TUM Groll group); with other subunits of the yeast proteasome
Sequence (P30656 76-287): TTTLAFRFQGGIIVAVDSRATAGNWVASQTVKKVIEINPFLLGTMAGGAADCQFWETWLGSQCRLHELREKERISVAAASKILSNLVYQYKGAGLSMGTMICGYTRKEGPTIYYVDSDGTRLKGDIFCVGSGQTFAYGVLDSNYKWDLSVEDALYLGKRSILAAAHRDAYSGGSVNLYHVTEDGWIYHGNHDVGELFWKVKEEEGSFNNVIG
Test: fluorescence intensity assay with Suc-Leu-Leu-Val-Tyr-AMC substrate
attribute-measured: IC50 (nM)
Numbers only, in nM.

Query: Look up IC50 of COc1ccc(C[C@H](NC(=O)[C@H](C)NC(=O)CN2CCOCC2)C(=O)N[C@@H](Cc2ccccc2)C(=O)[C@@]2(C)CO2)cc1 and report it.
Reply: 0.0366
